System Tested: IDO1 (Homo sapiens (Human), UniProt P14902)
Sequence (P14902 whole entry): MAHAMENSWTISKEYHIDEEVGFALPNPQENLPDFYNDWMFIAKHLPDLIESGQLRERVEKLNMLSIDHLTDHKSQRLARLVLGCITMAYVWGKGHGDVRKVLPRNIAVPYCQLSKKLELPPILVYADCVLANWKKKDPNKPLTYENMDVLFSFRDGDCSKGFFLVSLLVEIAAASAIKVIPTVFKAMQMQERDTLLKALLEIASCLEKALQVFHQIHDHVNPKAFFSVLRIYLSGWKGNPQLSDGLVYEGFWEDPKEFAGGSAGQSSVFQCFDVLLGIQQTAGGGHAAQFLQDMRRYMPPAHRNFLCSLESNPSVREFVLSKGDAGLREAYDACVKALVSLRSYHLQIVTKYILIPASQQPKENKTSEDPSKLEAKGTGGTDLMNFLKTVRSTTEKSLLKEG
Protocol Details: IDO1 Cellular Assay in Hela Cells Stimulated with IFNγ
Format: cell-based
Condition: about 48 hours, read-out: IDO1 HELA Cell Assay, IC50
pIC50: −log10 of the molar value.
Catalogue of pIC50 readings, one per entry.

# Compound, pIC50
measured = [
    ("CS(=N)(=O)N1CC(O)(CNc2nonc2/C(=N/O)N[C@H]2Cc3ccc(F)cc32)C1 (single isomer, unassigned) [Example 36]", 6.83),
    ("CS(=N)(=O)CCNC(=O)CNc1nonc1/C(=N/O)N[C@H]1Cc2ccc(F)cc21 (stereo partly shown) [Example 12]", 6.94),
    ("CS(=N)(=O)NCC(O)CNc1nonc1/C(=N\\O)N[C@H]1Cc2ccc(F)cc21 (single isomer, unassigned) [Example 56]", 6.79),
    ("CS(=N)(=O)NCC(O)CNc1nonc1/C(=N\\O)N[C@H]1Cc2ccc(F)cc21 (single isomer, unassigned) [Example 55]", 6.93),
    ("N=S1(=O)CC(CNc2nonc2/C(=N/O)N[C@H]2Cc3ccc(F)cc32)C1 (single isomer, unassigned) [Example 5]", 6.77),
    ("CS(=N)(=O)N1CCC(Nc2nonc2/C(=N/O)N[C@H]2Cc3ccc(F)cc32)C1 (single isomer, unassigned) [Example 46]", 6.81),
    ("CS(=N)(=O)N1CCC(Nc2nonc2/C(=N/O)N[C@H]2Cc3ccc(F)cc32)C1 (single isomer, unassigned) [Example 44]", 6.66),
]
